# test system: 3R Shaker K channel (Drosophila melanogaster, UniProt P08510, A359R/M356R)
# Sequence (P08510 whole entry M356R/A359R): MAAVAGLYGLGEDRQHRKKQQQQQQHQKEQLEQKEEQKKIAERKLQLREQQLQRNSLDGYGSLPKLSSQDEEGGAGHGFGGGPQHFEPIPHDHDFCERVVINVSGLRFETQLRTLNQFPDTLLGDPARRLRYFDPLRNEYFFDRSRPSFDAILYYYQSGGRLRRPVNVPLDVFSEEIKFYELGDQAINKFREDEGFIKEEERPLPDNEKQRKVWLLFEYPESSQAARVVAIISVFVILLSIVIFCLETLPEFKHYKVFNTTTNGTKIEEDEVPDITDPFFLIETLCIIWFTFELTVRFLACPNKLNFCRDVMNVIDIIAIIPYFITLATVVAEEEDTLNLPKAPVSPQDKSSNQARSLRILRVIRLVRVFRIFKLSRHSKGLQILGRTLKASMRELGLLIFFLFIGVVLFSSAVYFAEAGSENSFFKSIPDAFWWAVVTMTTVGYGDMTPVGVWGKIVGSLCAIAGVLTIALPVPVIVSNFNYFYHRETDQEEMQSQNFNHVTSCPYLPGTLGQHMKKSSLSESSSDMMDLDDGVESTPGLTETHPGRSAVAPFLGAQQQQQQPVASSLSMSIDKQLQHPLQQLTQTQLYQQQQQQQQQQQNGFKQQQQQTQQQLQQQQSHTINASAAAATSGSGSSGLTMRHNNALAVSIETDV
# experiment description: physchem
# Assay type: cell-based
# condition notes: Table 1; 100 μM, pH 7.4, Xenopus oocytes
Kindly state G(V) shift for each of the entries shown.
Field: numeric (mV). Do not append units.

Value of measured G(V) shift for the entry CO/N=C1\CC2[C@](C)(C(=O)O)CCC[C@]2(C)c2ccc(C(C)C)c(Br)c21 (some centres unmarked) [Wu74] : −14.7

Value of measured G(V) shift for the entry CC(C)c1ccc2c(c1F)C(=O)C[C@H]1[C@](C)(C(=O)O)CCC[C@]21C [Wu113] : −3.6

Value of measured G(V) shift for the entry CC(C)c1cc2c(cc1Cl)C1(C)CCCC(C)(C(=O)O)C1CC2=NOCc1ccccc1 (centres unmarked) [Wu22] : −9.1

Value of measured G(V) shift for the entry CC(C)c1cc2c(cc1Cl)[C@@]1(C)CCC[C@@](C)(C(=O)O)C1CC2 (some centres unmarked) [Wu13] : −15.8

Value of measured G(V) shift for the entry CO/N=C1\CC2[C@](C)(C(=O)O)CCC[C@]2(C)c2ccc(C(C)C)c(Cl)c21 (some centres unmarked) [Wu16] : −17.2

* * *

# test system: WT Shaker K channel (Drosophila melanogaster, UniProt P08510, DEL6-46)
# Sequence (P08510 other isoform, or with tags, fused parts or gaps DEL6-46): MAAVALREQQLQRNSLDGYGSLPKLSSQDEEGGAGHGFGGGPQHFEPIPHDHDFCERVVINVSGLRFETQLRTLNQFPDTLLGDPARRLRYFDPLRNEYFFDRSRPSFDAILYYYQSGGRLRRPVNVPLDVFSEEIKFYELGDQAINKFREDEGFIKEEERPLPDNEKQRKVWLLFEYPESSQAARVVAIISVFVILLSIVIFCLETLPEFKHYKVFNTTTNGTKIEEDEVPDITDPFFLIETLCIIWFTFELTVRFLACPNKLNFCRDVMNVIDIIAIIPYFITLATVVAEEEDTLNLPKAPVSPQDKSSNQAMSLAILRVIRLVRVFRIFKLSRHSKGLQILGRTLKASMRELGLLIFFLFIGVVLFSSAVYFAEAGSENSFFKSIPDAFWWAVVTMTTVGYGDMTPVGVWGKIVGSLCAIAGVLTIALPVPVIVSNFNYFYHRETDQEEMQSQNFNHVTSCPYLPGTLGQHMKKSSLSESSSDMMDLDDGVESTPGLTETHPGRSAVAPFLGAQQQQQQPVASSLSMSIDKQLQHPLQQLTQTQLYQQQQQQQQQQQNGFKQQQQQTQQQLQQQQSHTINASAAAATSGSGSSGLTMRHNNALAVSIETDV
# experiment description: physchem
# Type: cell-based
# condition notes: 100 μM, pH 7.4, Xenopus oocytes
Kindly state G(V) shift for WT for each of the entries shown.
Field: numeric (mV). Do not append units.

Value of measured G(V) shift for WT for the entry C[C@@]1(C(=O)O)CCC[C@]2(C)c3cc(Cl)c(Cl)c(Cl)c3CCC12 (some centres unmarked) : −21.2

Value of measured G(V) shift for WT for the entry `CC/C=C\C/C=C\C/C=C\C/C=C\C/C=C\C/C=C\CCC(=O)O` : −6.0

* * *

Kindly state pKd for each of the entries shown.
# test system: 3R Shaker K channel (Drosophila melanogaster, UniProt P08510, A359R/M356R)
# experiment description: cell-based
# Type: cell-based
Friendly reminder that pKd comes from taking -log10 of the concentration in mol/L.

Value of measured pKd for the entry C[C@@]1(C(=O)O)CCC[C@]2(C)c3cc(Cl)c(Cl)c(Cl)c3CCC12 (some centres unmarked) : 4.43

Value of measured pKd for the entry CC(C)c1ccc2c(c1)CC[C@H]1[C@](C)(C(=O)O)CCC[C@]21C [DHAA, dehydroabietic acid] : 4.05

* * *

# test system: 3R Shaker K channel (Drosophila melanogaster, UniProt P08510, A359R/M356R)
# experiment description: physchem
# Type: cell-based
# condition notes: 100 μM, pH 7.4, same cells as representative traces
measured attribute: ΔG(V) of representative G(V) curves (single examples) (mV)
Field: numeric (mV). Do not append units.

Value of measured ΔG(V) of representative G(V) curves (single examples) for the entry C=C[C@@]1(C)CC[C@H]2C(=CC[C@@H]3[C@]2(C)CCC[C@@]3(C)C(=O)O)C1 [Iso-PiMA, isopimaric acid, reference compound] : −20.0

Value of measured ΔG(V) of representative G(V) curves (single examples) for the entry `CC(C)C1=CC2=CC[C@@H]3[C@](C)(CCC[C@@]3(C)C(=O)O)[C@H]2CC1` : −8.1

Value of measured ΔG(V) of representative G(V) curves (single examples) for the entry `CC(C)c1c(Cl)cc2c(c1Cl)CC[C@H]1[C@](C)(C(=O)O)CCC[C@]21C` : −6.1

Value of measured ΔG(V) of representative G(V) curves (single examples) for the entry C=C[C@@]1(C)C=C2CC[C@@H]3[C@](C)(CCC[C@@]3(C)C(=O)O)[C@H]2CC1 [PiMA, pimaric acid, reference compound] : −10.8

Value of measured ΔG(V) of representative G(V) curves (single examples) for the entry C[C@@]1(C(=O)O)CCC[C@]2(C)c3cc(Cl)c(Cl)c(Cl)c3CCC12 (stereo partly drawn) : −32.6

* * *

# test system: 3R Shaker K channel (Drosophila melanogaster, UniProt P08510, A359R/M356R)
# experiment description: physchem
# Format: cell-based
# condition notes: 100 μM, pH 7.4, Xenopus oocytes
measured attribute: compound-induced G(V) shift (mean±SEM) (mV)
Field: numeric (mV). Do not append units.

// compound-induced G(V) shift (mean±SEM) (3R Shaker K channel (Drosophila melanogaster, UniProt P08510, A359R/M356R)) for CC(C)c1c(Cl)cc2c(c1Cl)CC[C@H]1[C@](C)(C(=O)O)CCC[C@]21C [Wu27] = −5.9

// compound-induced G(V) shift (mean±SEM) (3R Shaker K channel (Drosophila melanogaster, UniProt P08510, A359R/M356R)) for C=C[C@@]1(C)C=C2CC[C@@H]3[C@](C)(CCC[C@@]3(C)C(=O)O)[C@H]2CC1 [PiMA, pimaric acid, reference compound] = −10.4

// compound-induced G(V) shift (mean±SEM) (3R Shaker K channel (Drosophila melanogaster, UniProt P08510, A359R/M356R)) for CC(C)C1=CC2=CC[C@@H]3[C@](C)(CCC[C@@]3(C)C(=O)O)[C@H]2CC1 [AA, abietic acid] = −11.2

// compound-induced G(V) shift (mean±SEM) (3R Shaker K channel (Drosophila melanogaster, UniProt P08510, A359R/M356R)) for C[C@@]1(C(=O)O)CCC[C@]2(C)c3cc(Cl)c(Cl)c(Cl)c3CCC12 (stereo partly shown) [Wu50] = −31.6

// compound-induced G(V) shift (mean±SEM) (3R Shaker K channel (Drosophila melanogaster, UniProt P08510, A359R/M356R)) for C=CCO/N=C1\CC2[C@](C)(C(=O)O)CCC[C@]2(C)c2ccc(C(C)C)cc21 (stereo partly shown) [Compound K8] = −17.8

// compound-induced G(V) shift (mean±SEM) (3R Shaker K channel (Drosophila melanogaster, UniProt P08510, A359R/M356R)) for CON=C1C[C@H]2[C@](C)(C(=O)O)CCC[C@]2(C)c2ccc(C(C)C)cc21 [Wu36] = −14.8

// compound-induced G(V) shift (mean±SEM) (3R Shaker K channel (Drosophila melanogaster, UniProt P08510, A359R/M356R)) for C=C[C@@]1(C)CC[C@H]2C(=CC[C@@H]3[C@]2(C)CCC[C@@]3(C)C(=O)O)C1 [Iso-PiMA, isopimaric acid, reference compound] = −15.9

// compound-induced G(V) shift (mean±SEM) (3R Shaker K channel (Drosophila melanogaster, UniProt P08510, A359R/M356R)) for CC(C)c1cc2c(cc1Br)[C@@]1(C)CCC[C@@](C)(C(=O)O)C1CC2 (stereo partly shown) [Wu24] = −12.4

* * *

# test system: 3R Shaker K channel (Drosophila melanogaster, UniProt P08510, A359R/M356R)
# experiment description: physchem
# Format: cell-based
# condition notes: Table 1; 100 μM, pH 7.4, Xenopus oocytes
Kindly state G(V) shift for each of the entries shown.
Field: numeric (mV). Do not append units.

// G(V) shift (3R Shaker K channel (Drosophila melanogaster, UniProt P08510, A359R/M356R)) for `CO/N=C1\C[C@H]2[C@](C)(C(=O)O)CCC[C@]2(C)c2c(Cl)cc(C(C)C)cc21` = −23.2

// G(V) shift (3R Shaker K channel (Drosophila melanogaster, UniProt P08510, A359R/M356R)) for CC(C)c1ccc2c(c1Br)C(=NOCc1ccccc1)CC1C(C)(C(=O)O)CCCC21C (centres unmarked) = −5.2

// G(V) shift (3R Shaker K channel (Drosophila melanogaster, UniProt P08510, A359R/M356R)) for CO/N=C1\CC2[C@](C)(C(=O)O)CCC[C@]2(C)c2cc(F)c(C(C)C)cc21 (some centres unmarked) = −19.9

// G(V) shift (3R Shaker K channel (Drosophila melanogaster, UniProt P08510, A359R/M356R)) for CC(C)c1c(Cl)cc2c(c1Cl)C(=NO)CC1C(C)(C(=O)O)CCCC21C (centres unmarked) = −6.1

// G(V) shift (3R Shaker K channel (Drosophila melanogaster, UniProt P08510, A359R/M356R)) for C=CCON=C1CC2C(C)(C(=O)O)CCCC2(C)c2cc(Cl)c(C(C)C)c(Cl)c21 (centres unmarked) = −13.4

// G(V) shift (3R Shaker K channel (Drosophila melanogaster, UniProt P08510, A359R/M356R)) for CC(C)c1cc2c(cc1I)C1(C)CCCC(C)(C(=O)O)C1CC2=NOCc1ccccc1 (centres unmarked) = −6.0

// G(V) shift (3R Shaker K channel (Drosophila melanogaster, UniProt P08510, A359R/M356R)) for CC(C)c1ccc2c(c1Cl)C(=NOCc1ccccc1)CC1C(C)(C(=O)O)CCCC21C (centres unmarked) = −1.3

// G(V) shift (3R Shaker K channel (Drosophila melanogaster, UniProt P08510, A359R/M356R)) for C[C@]1(C(=O)O)CCC[C@]2(C)c3cc(Cl)ccc3CCC12 (some centres unmarked) = −12.0

Entry source: patent US20180193294A1
